# Tested Target: HLA-E (Homo sapiens, UniProt P13747, G128R)
# Method Notes: in vitro peptide binding assay to HLA-E
# Conditions Used: in vitro peptide binding assay, ratio of optical densities; read-out: Concentration of peptide required to obtain 50% of binding to HLA-E
# Excerpt: Whatever form of HLA-E is used, a suitable peptide for binding in the HLA-E peptide groove will be required. […] Other peptides which bind to HLA-E may be used, for example peptides from viral proteins which may be the same as or different to MHC class I leader sequence peptides. […] A suitable assay for identifying synthetic peptides which bind to HLA-E is described in Braud et al 1997 Eur. J. Immunol. 27:1164-1169.
pEC50: −log10 of the molar value. No end group written: not given here.
Assay Metric: pEC50

Entry "VTAPRTLLL" — recorded pEC50 = < 4.00
